Source of measurements: patent US20250270198A1

# tested-on: human TRPA1 channel (Homo sapiens (Human), UniProt O75762)
# Sequence (O75762 whole entry): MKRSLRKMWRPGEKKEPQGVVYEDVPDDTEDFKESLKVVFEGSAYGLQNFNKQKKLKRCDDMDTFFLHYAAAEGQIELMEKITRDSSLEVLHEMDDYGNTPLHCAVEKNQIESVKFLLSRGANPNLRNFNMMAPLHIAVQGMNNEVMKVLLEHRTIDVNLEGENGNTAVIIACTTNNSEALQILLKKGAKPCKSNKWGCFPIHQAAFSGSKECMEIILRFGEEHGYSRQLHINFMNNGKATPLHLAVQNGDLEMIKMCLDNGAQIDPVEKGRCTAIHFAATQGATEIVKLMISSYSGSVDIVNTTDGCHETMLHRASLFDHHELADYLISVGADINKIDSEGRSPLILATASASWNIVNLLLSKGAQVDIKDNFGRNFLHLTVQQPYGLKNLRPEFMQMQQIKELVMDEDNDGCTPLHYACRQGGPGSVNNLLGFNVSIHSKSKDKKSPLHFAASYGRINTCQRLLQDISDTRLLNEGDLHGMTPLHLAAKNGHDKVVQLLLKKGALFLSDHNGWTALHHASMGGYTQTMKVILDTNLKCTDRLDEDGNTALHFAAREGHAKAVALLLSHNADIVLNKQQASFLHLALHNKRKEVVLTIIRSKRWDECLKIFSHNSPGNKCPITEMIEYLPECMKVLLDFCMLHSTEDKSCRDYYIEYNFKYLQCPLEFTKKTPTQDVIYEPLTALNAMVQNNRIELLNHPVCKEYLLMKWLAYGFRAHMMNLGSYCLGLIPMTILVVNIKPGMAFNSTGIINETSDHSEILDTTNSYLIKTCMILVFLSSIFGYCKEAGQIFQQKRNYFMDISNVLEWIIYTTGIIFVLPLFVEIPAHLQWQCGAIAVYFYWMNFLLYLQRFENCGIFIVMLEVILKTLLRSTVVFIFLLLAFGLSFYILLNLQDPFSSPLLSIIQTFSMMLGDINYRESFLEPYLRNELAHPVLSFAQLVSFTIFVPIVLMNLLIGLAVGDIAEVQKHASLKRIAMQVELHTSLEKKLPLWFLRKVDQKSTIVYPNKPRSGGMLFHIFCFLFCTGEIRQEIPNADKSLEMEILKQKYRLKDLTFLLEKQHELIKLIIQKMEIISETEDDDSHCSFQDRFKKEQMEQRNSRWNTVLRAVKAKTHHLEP
# method-notes: TRPA1 inhibitor activity, automated patch clamp (SyncroPatch)
# Assay type: cell-based
# condition-summary: CHO cells inducibly expressing human TRPA1; currents elicited by carvacrol (300 μM), holding potential −60 mV; Table 5
pIC50: −log10 of the molar value.
Measured pIC50 of individual entries

* NC(=O)c1ncn(Cc2nc(C[C@H](O)c3ccc(Cl)cc3)no2)c(=O)c1Cl | > 6.00
* COc1ncn(Cc2nc(C[C@H](O)c3ccc(Cl)cc3)no2)c(=O)c1Cl | > 6.52
* Cc1ncn(Cc2nc(C[C@H](O)c3ccc(Cl)cc3)no2)c(=O)c1C | > 6.52
* O=c1c(Cl)c(Cl)ncn1Cc1nc(C[C@H](O)c2ccc(Cl)cc2)no1 | > 7.00
* Nc1ncn(Cc2nc(C[C@H](O)c3ccc(Cl)cc3)no2)c(=O)c1Cl | > 6.52

For the molecule O=c1c(Cl)cnc(CO)n1Cc1nc(C[C@H](O)c2ccc(Cl)cc2)no1 , report pIC50. > 7.00

For the molecule Cc1c(-c2cn[nH]c2)ncn(Cc2nc(C[C@H](O)c3ccc(Cl)cc3)no2)c1=O , report pIC50. > 6.52

For the molecule Cc1ncc(Cl)c(=O)n1Cc1nc(C[C@H](O)c2ccc(Cl)cc2)no1 , report pIC50. > 6.00
